Hey, just so you know, these numbers are from PubChem BioAssay AID624129.

# target: Apelin receptor (Homo sapiens)
# protocol_description: potency against CXCR6 with APJ panel – cell-based, beta-arrestin, DiscoveRx, uHTS hits, dose response (AID 624129)
# stated_conditions: CXCR6 beta-arrestin (DiscoveRx) antagonist cell assay, APJ, dose range 1
Calls of active or inactive are those of the source. No rule for the calls is given here.
Field 'call' accepts active, inactive

Recorded results for 6 compounds are shown here.
compound | target | class_assignment
O=C(CSc1nc(-c2ccco2)cc(C(F)(F)F)n1)NCCCn1ccnc1 | Apelin receptor (Homo sapiens) | active
Cc1ccc(C(=O)CNc2ccc(F)cc2)cc1 | Apelin receptor (Homo sapiens) | active
CC(Oc1ccc(Br)cc1)C(=O)Nc1nc(-c2ccccn2)cs1 (configuration not stated) | Apelin receptor (Homo sapiens) | active
C/C(=N\NC(=O)Cc1ccc(Cl)cc1)c1ccccn1 | Apelin receptor (Homo sapiens) | active
O=C1C(Cc2ccccc2)Nc2ncnc(N3CCN(c4ccccc4)CC3)c2N1Cc1ccc(Cl)cc1 (configuration not stated) | Apelin receptor (Homo sapiens) | inactive
CC(C)(C)c1ccc(-n2nc(C#N)c(Cl)cc2=O)cc1 | Apelin receptor (Homo sapiens) | active

-- ask Answer briefly: the call reported for Oc1cccc2ccc(/C=C/c3cccs3)nc12 in this assay.
-- reply active

-- ask Field: outcome | Entry: Cc1cccnc1Nc1nc(-c2ccccn2)cs1
-- reply active

-- ask Test call, this compound: COc1ccccc1C(=O)NNC(=S)NC(=O)c1cccs1
-- reply active

-- ask How was CCC(=O)OCCNc1cc(Sc2nc3ccccc3[nH]2)c2nonc2c1[N+](=O)[O-] classified in this test?
-- reply active

-- ask Write down the call the test reported for this compound. Item: Cc1c(Cl)sn(-c2ccc(Cl)cc2)c1=O
-- reply active

-- ask Called result for Cn1c(O)c(C2=NNC(c3ccc(Cl)cc3)C2)c(=O)n(C)c1=O (configuration not stated)
-- reply active

====

# target: C-X-C chemokine receptor type 6 (Homo sapiens) (UniProt O00574)
# Sequence (O00574 whole entry, looked up): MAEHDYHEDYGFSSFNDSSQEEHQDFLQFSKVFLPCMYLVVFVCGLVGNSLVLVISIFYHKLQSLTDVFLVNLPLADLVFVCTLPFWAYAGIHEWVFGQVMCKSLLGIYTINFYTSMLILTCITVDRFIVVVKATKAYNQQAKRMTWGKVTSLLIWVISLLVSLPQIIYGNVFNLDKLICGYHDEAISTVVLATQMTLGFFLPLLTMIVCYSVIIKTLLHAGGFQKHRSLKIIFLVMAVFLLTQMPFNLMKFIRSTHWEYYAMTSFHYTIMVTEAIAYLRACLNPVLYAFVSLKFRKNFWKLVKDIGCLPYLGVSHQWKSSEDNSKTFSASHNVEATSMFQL
# protocol_description: potency against CXCR6 with APJ panel – cell-based, beta-arrestin, DiscoveRx, uHTS hits, dose response (AID 624129)
# stated_conditions: CXCR6 beta-arrestin (DiscoveRx) antagonist cell assay, CXCR6, run 2, dose range 2
# IC50 listing for each entry below

What the record says about C/C(=N\NC(=O)c1cc(-c2cccs2)nc2ccccc12)c1ccccn1 : IC50 is > 79 µM

Reported IC50 of C/C(=N\Nc1nc2ccccc2[nH]1)c1ccccn1 : > 79 µM

Documented IC50 of Cc1ccc(NCC(=O)c2ccc(C)cc2)cc1 : > 79 µM

====

# target: C-X-C chemokine receptor type 6 (Homo sapiens)
# protocol_description: potency against CXCR6 with APJ panel – cell-based, beta-arrestin, DiscoveRx, uHTS hits, dose response (AID 624129)
# stated_conditions: CXCR6 beta-arrestin (DiscoveRx) antagonist cell assay, CXCR6, run 1, dose range 2
pIC50: −log10 of the molar value.
Cut-off 5 on pIC50, inclusive. At or above means 1; below means -1.

Reference set, count: 4
compound | class_assignment
NNc1nc(-c2ccccc2)cc(-c2ccccc2O)n1 | 1
Cc1ccc(NC(=O)c2ccc(Nc3c([N+](=O)[O-])cc([N+](=O)[O-])cc3[N+](=O)[O-])cc2)cc1 | -1
CCc1nnc(NS(=O)(=O)c2ccc(Nc3ccc([N+](=O)[O-])c4nonc34)cc2)s1 | -1
COC(=O)c1ccc(CCc2cc(O)c(Br)cc2O)cc1 | -1

Pending compound:
-- ask Textbook exercise: given the entry COc1cccc(/C=C2/CCC(CN(C)C)C2=O)c1 (centres undefined) , state whether its pIC50 is greater than or equal to 5.
-- reply -1

====

# target: C-X-C chemokine receptor type 6 (Homo sapiens) (UniProt O00574)
# protocol_description: potency against CXCR6 with APJ panel – cell-based, beta-arrestin, DiscoveRx, uHTS hits, dose response (AID 624129)
# stated_conditions: CXCR6 beta-arrestin (DiscoveRx) antagonist cell assay, CXCR6, dose range 1, mean IC50 across replicates
pIC50: −log10 of the molar value.
property_measured: pIC50

smiles | result
N#CC(C#N)=C1C=CC=CN1/C(=C\c1ccco1)C(=O)c1ccc(Br)cc1 | < 4.10
CS(=O)(=O)c1ncc(Cl)c(C(=O)Nc2ccc3ccccc3c2)n1 | < 4.10
CCOc1ccc(NC(=O)CN(C)S(=O)(=O)c2cccs2)cc1 | < 4.10

The recorded pIC50 for entry O=[N+]([O-])/C=C/c1c(Cl)cccc1Cl equals < 4.10

====

Listed next: entries and their corresponding inhibition.
# target: C-X-C chemokine receptor type 6 (Homo sapiens) (UniProt O00574)
# protocol_description: potency against CXCR6 with APJ panel – cell-based, beta-arrestin, DiscoveRx, uHTS hits, dose response (AID 624129)
# stated_conditions: CXCR6 beta-arrestin (DiscoveRx) antagonist cell assay, CXCR6, run 1, dose range 2, at 80 µM (top of the series)
Only the number, expressed in %, is required.

// below: answered compounds
smiles | scale_unit | inhibition
CCOC(=O)c1c(SCCN2CCCCC2)n(-c2ccccc2)c(=S)n(-c2ccccc2)c1=O | % | 130
FC(F)(F)c1cnc(NNC(=S)Nc2ccccc2Cl)c(Cl)c1 | % | 2.4
COc1ccc([N+](=O)[O-])c(S(=O)(=O)c2ccc(Cl)cc2)n1 | % | 75.8
O=[N+]([O-])/C=C/c1c(Cl)cccc1Cl | % | 54
CNC(=O)c1nnsc1S(=O)(=O)c1ccc(Cl)cc1 | % | 116
CCCCCCN1C=C/C(=C\C=C(C#N)C#N)c2ccccc21 | % | 158

Lab note: next compound to report on.
Briefly, inhibition measured for Cc1ccnc(N2C(=O)c3cccc4c([N+](=O)[O-])ccc(c34)C2=O)c1 : 129

====

# target: C-C chemokine receptor type 6 (Homo sapiens)
# protocol_description: potency against CXCR6 with APJ panel – cell-based, beta-arrestin, DiscoveRx, uHTS hits, dose response (AID 624129)
# stated_conditions: CXCR6 beta-arrestin (DiscoveRx) antagonist cell assay, CCR6, dose range 1
property_measured: IC50

Worked examples follow.
compound | property_measured | result
O=C(Nc1cccc(C(F)(F)F)c1)Oc1ccc(Cl)c2cccnc12 | IC50 | 0.491 µM
COc1ccc(NC(=O)/C(Cl)=C(/Cl)S(=O)(=O)Cc2ccc(C)cc2)cn1 | IC50 | 0.489 µM
CCCC(=O)OCCNc1cc(Sc2nc3ccccc3[nH]2)c2nonc2c1[N+](=O)[O-] | IC50 | 5.26 µM
O=C1C(=C(c2ccccc2)N2CCOCC2)Cc2ccccc21 | IC50 | 8.91 µM
Cc1ccc(OCCn2c(NC(=O)c3ccco3)nc3ccccc32)cc1 | IC50 | 4.28 µM
O=C(/C=C/c1cccc([N+](=O)[O-])c1)c1ccc([N+](=O)[O-])o1 | IC50 | 6.68 µM
Cc1cc(Cl)n2c(nc3cc(F)c(F)cc32)c1C#N | IC50 | 7.09 µM
Cc1ccc(NC(=S)N/N=C/c2ccc([N+](=O)[O-])s2)cc1 | IC50 | 3.88 µM
COc1ccc(-n2c(O)c(/C=N/Nc3nc(C)cc(C)n3)c3ccccc3c2=O)cc1OC | IC50 | 31.3 µM
O=C(c1nnsc1S(=O)c1ccc(Cl)cc1)N1CCOCC1 (stereo not given) | IC50 | 13.2 µM

// COc1cccc(-n2nc(C#N)c(Cl)cc2=O)c1 : IC50 value = 6.31 µM

Field IC50 (entry O=[N+]([O-])c1ccc(Sc2cccc3cccnc23)c([N+](=O)[O-])c1 ) reads 3.32 µM

Value of measured IC50 for the entry CCCCOc1ccc(C(=O)NNC(=S)NC(=O)CC)cc1 : 7.58 µM

The compound listed as NNc1nc(-c2ccccc2)cc(-c2ccccc2O)n1 shows IC50 equal to 7.84 µM

====

# target: C-X-C chemokine receptor type 6 (Homo sapiens)
# protocol_description: potency against CXCR6 with APJ panel – cell-based, beta-arrestin, DiscoveRx, uHTS hits, dose response (AID 624129)
# stated_conditions: CXCR6 beta-arrestin (DiscoveRx) antagonist cell assay, CXCR6, run 1, dose range 2
We begin with a simple list: items and their reported IC50.
Answer format: number, then unit.

compound | IC50
O=C(Nc1ccccc1Cl)/C(Cl)=C(\Cl)S(=O)c1ccccc1 (centres undefined) | 9.44 µM
COc1cccc(C(=O)NC(=S)N2CCN(c3ccc(C(F)(F)F)cc3[N+](=O)[O-])CC2)c1 | 13.1 µM
CC(C)[C@H](NC(=O)OC(C)(C)C)c1nnc(S(=O)(=O)Cc2c(F)cccc2Cl)o1 | 12.9 µM

# IC50 (compound: COc1cc(/C=C2\SC(=O)N(c3ccc(Cl)cc3)C2=O)cc([N+](=O)[O-])c1O ) is 12.8 µM

====

# target: C-X-C chemokine receptor type 6 (Homo sapiens)
# protocol_description: potency against CXCR6 with APJ panel – cell-based, beta-arrestin, DiscoveRx, uHTS hits, dose response (AID 624129)
# stated_conditions: CXCR6 beta-arrestin (DiscoveRx) antagonist cell assay, CXCR6, dose range 1
Active and inactive are the calls of the source. The rule behind the calls is not given here.
Lab note: assign the record to one of active, inactive

compound | class_assignment
Cc1ccc(NCC(=O)c2ccc(C)cc2)cc1 | active
Cc1ccc(NC(=S)NNc2ccc(C(=O)O)cc2[N+](=O)[O-])cc1C | inactive
O=[N+]([O-])c1cc(-c2ncccn2)c([N+](=O)[O-])s1 | inactive

-- ask Look up the recorded call for O=[N+]([O-])c1ccc(Sc2nc3ccccc3o2)c([N+](=O)[O-])c1 in this test.
-- reply inactive

-- ask Which result was noted for this compound in the test: CCOC(=O)c1c(-c2ccc(C)o2)csc1NC(=S)NC(=O)N(C)C
-- reply inactive

-- ask Recorded call for CC(=O)OC1CCC2(C)C(CCC3C4CC=C(C(C)=O)C4(C)OC(=O)CC32)C1 (stereo not given) ?
-- reply inactive

-- ask For this compound, state the assay outcome: Cc1cc(C)nc(S/C=C/C(=O)c2ccccc2)n1
-- reply inactive

-- ask // outcome(item) with item = Cc1cccc(NC(=S)N/N=C/c2ccc([N+](=O)[O-])s2)c1
-- reply inactive

-- ask Tell me the recorded outcome of this test for Cc1ccccc1CS(=O)(=O)c1ncc(Cl)c(C(=O)Nc2ccc(F)cc2)n1 .
-- reply inactive

-- ask What did this assay record as the result for CCCC/C=C1/CCC(CN(C)C)C1=O (stereo not given) ?
-- reply inactive
